The measurements presented in this section are drawn from patent US20250041312A1.

experimental-protocol: SAD study in healthy volunteers: PK in plasma, whole blood, red blood cells
Type: in vivo, human
experimental-parameters: human; HV single oral 50 mg (Cohort 1); red blood cells (conc. calculated from blood, plasma, hematocrit); median
reported-metric: Tmax (h)
Use h as the unit, but write only the number.

Requested read-out: Tmax. Entry: O=Cc1c(O)cccc1OC[C@@H]1COCCN1C(=O)c1cccnc1CCO
24

----------
experimental-protocol: SAD study in healthy volunteers: PK in plasma, whole blood, red blood cells
Type: in vivo, human
experimental-parameters: human, plasma, 100 mg, healthy volunteers n=6, single 100 mg; geometric mean
reported-metric: Cmax (ng/mL)
Use ng/mL as the unit, but write only the number.

Requested read-out: Cmax. Entry: O=Cc1c(O)cccc1OC[C@@H]1COCCN1C(=O)c1cccnc1CCO
714
